- Test system: Dopamine Receptor
- Assay procedure: Inhibition of apomorphine induced climbing in the mouse (dopamine receptor blocking activity in the central nervous system)
- Type: in vivo
- Settings: p.o., apomorphine 1 mg/kg s.c., not necessarily the lowest active dose
Measurement kind: Active Dose (inhibition of apomorphine induced climbing) (mg/kg)
Give bare numbers, in mg/kg.

COc1cc(NC(C)=O)c(Cl)cc1C(=O)N[C@@H]1C[C@H]2COC[C@@H](C1)N2Cc1ccccc1 [Compound 1]    2
CCCCCCN1[C@@H]2COC[C@H]1C[C@H](NC(=O)c1cc(Cl)c(N)cc1OC)C2 [Compound 23]    10
COc1ccc(CN2[C@@H]3COC[C@H]2C[C@H](NC(=O)c2cc(Cl)c(N)cc2OC)C3)cc1 [Compound 19]    10

Kindly review the next compound as well.
## Input I have this compound here, COc1cc(N)c(Cl)cc1C(=O)N[C@@H]1C[C@H]2COC[C@@H](C1)N2Cc1ccc(Cl)cc1 [Compound 18] , and I need its recorded Active Dose (inhibition of apomorphine induced climbing).
## Output 10
